Property: IR/IGF-1R Comparison; scope: individual binders
Target: T1, Insulin receptor prepared according to Bass et al., 1996: soluble human insulin receptor-immunoglobulin heavy … (human, UniProt P06213 28-956)
T1 construct: extracellular domain; Eu3+-labelled in TR-FRET; also called IR; sIR-Fc; not shown: immunoglobulin heavy chain constant domains that replace the transmembrane and i
Experiment: phage ELISA, vs IGF-1R
Positions of bridges follow the written chain, without caps; N, C: chain ends. No end group written: not given here.
Quantity: IR/IGF-1R Comparison

# Binder, Endpoint value
records = [
    ("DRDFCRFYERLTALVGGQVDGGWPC (disulfide 5-25 (inferred)) [20C-3-F6-IGFR]", "0.1 ratio"),
    ("SRVAATKEKRPSDDPFYHKLSELLQGS [B6Hα-3-F7-IR]", "0.3 ratio"),
    ("GRTMAVMAAGGPDDPFYHKLSELVQGG [B6Hα-2-D6-IR]", "0.2 ratio"),
    ("LGVTDGFYAALGYLIHGVGQF [20E2B-3-D11-IGFR]", "0.1 ratio"),
]
